System: PPARg:RXRa (NR concentration 180 nM, RXRa partner concentration 90 nM)
METHOD NOTES: PBM binding z-score (relative to random genomic background probes); higher = stronger binding; sequences stand for … in GC…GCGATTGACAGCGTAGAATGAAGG
VALUE KIND: PBM binding z-score
When you answer, write just the number.

- SEQUENCE CONTENT: "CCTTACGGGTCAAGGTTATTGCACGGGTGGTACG"
  PBM binding z-score: 4.52

## Input Reported PBM binding z-score, sequence GCTAGCAGGCCAATTGGGTCACTCAATGACGGGC : ____
## Output 1.01

## Input # query: PBM binding z-score of entry TCTTGTCGATCAAAGGTTAAGAAAGCCGAAGCCT
## Output 5.79

## Input Need PBM binding z-score, item CCTACTGGGCCATCAGGTCATTGGTATCAACGTT
## Output 2.98

## Input // query PBM binding z-score value for entry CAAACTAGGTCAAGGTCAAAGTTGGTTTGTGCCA
## Output 9.87

## Input Record request: PBM binding z-score value, item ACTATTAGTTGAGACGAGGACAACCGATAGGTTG
## Output 0.659

----------
System: RARg:RXRa (NR concentration 270 nM, RXRa partner concentration 90 nM)
METHOD NOTES: PBM binding z-score (relative to random genomic background probes); higher = stronger binding; sequences stand for … in GC…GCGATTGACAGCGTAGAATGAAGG
VALUE KIND: PBM binding z-score
Output spec: single numeric token, no unit.

- SEQUENCE CONTENT: "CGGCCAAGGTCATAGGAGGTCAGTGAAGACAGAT"
  PBM binding z-score: 6.78
- SEQUENCE CONTENT: "CCTACTGGGGCATCAGGTCATTGATATCAACGTT"
  PBM binding z-score: 2.6

## Input Fill in: PBM binding z-score of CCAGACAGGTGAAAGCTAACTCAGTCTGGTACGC is ___
## Output 0.135

## Input Consider the sequence AGTCAAAGTTCATCTAGGTAACGTTAGATATGCT and give its measured PBM binding z-score.
## Output 5.6

## Input For the sequence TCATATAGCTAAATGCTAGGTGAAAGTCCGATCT , what PBM binding z-score is on record?
## Output 0.0741

## Input Fill in the blank: the reported PBM binding z-score of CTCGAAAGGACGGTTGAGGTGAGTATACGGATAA is ____.
## Output 0.406

## Input I'd like to know its PBM binding z-score. The sequence in question is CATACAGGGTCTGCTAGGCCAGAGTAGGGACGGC
## Output -0.0355

----------
Test system: THRa:RXRa (NR concentration 90 nM, RXRa partner concentration 90 nM)
METHOD NOTES: PBM binding z-score (relative to random genomic background probes); higher = stronger binding; sequences stand for … in GC…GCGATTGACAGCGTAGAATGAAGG
VALUE KIND: PBM binding z-score

For orientation, consider the following solved cases.
- SEQUENCE CONTENT: "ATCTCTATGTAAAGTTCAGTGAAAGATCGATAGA"
  ASSAYED SYSTEM: "THRa:RXRa (NR concentration 90 nM, RXRa partner concentration 90 nM)"
  PBM binding z-score: 0.757
- SEQUENCE CONTENT: "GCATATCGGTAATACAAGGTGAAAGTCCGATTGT"
  ASSAYED SYSTEM: "THRa:RXRa (NR concentration 90 nM, RXRa partner concentration 90 nM)"
  PBM binding z-score: 3.07
- SEQUENCE CONTENT: "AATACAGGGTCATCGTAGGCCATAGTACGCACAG"
  ASSAYED SYSTEM: "THRa:RXRa (NR concentration 90 nM, RXRa partner concentration 90 nM)"
  PBM binding z-score: 4.94
- SEQUENCE CONTENT: "CCTCCTGGGCCATTCAGAGGTCATTGATCATATG"
  ASSAYED SYSTEM: "THRa:RXRa (NR concentration 90 nM, RXRa partner concentration 90 nM)"
  PBM binding z-score: 3.3
- SEQUENCE CONTENT: "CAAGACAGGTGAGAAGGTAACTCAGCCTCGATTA"
  ASSAYED SYSTEM: "THRa:RXRa (NR concentration 90 nM, RXRa partner concentration 90 nM)"
  PBM binding z-score: 0.413
- SEQUENCE CONTENT: "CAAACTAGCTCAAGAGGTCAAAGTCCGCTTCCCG"
  ASSAYED SYSTEM: "THRa:RXRa (NR concentration 90 nM, RXRa partner concentration 90 nM)"
  PBM binding z-score: 3.66
- SEQUENCE CONTENT: "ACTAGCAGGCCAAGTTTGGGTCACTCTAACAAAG"
  ASSAYED SYSTEM: "THRa:RXRa (NR concentration 90 nM, RXRa partner concentration 90 nM)"
  PBM binding z-score: 2.39
- SEQUENCE CONTENT: "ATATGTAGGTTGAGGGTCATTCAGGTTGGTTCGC"
  ASSAYED SYSTEM: "THRa:RXRa (NR concentration 90 nM, RXRa partner concentration 90 nM)"
  PBM binding z-score: 2.92
- SEQUENCE CONTENT: "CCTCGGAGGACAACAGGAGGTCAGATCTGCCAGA"
  ASSAYED SYSTEM: "THRa:RXRa (NR concentration 90 nM, RXRa partner concentration 90 nM)"
  PBM binding z-score: 2.81
- SEQUENCE CONTENT: "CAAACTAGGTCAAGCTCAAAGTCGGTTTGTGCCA"
  ASSAYED SYSTEM: "THRa:RXRa (NR concentration 90 nM, RXRa partner concentration 90 nM)"
  PBM binding z-score: 3.2

## Input Give the measured PBM binding z-score of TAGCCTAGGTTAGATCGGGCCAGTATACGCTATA .
## Output 2.61

## Input Return reported PBM binding z-score; argument: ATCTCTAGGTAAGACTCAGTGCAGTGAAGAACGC
## Output 0.285

## Input Returns the measured PBM binding z-score for the input sequence. Input: TCTCGTAGGACACGAAAGGTCAGAGCTCGACATC
## Output 3.28

## Input Quick one: PBM binding z-score for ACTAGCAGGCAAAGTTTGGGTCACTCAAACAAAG ?
## Output 2.14

## Input Query: PBM binding z-score; subject: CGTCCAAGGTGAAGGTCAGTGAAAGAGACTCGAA
## Output 2.71

## Input Consider the sequence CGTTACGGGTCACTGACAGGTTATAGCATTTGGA and give its measured PBM binding z-score.
## Output 3

## Input What does the data say about its PBM binding z-score? Entry: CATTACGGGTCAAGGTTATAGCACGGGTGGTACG
## Output 3.51

## Input Requested field: PBM binding z-score. Item: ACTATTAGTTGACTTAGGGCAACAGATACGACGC
## Output 1.48

----------
Test system: PPARg:RXRa 90nM:30nM, anti-RXR (NR concentration 90 nM, RXRa partner concentration 30 nM)
METHOD NOTES: PBM binding z-score (relative to random genomic background probes); higher = stronger binding; sequences stand for … in GC…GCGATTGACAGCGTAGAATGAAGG
Below, each entry is listed alongside its reported PBM binding z-score.
The answer should be a number; do not append a unit.

- SEQUENCE CONTENT: "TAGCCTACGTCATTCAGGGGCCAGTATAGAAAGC"
  ASSAYED SYSTEM: "PPARg:RXRa 90nM:30nM, anti-RXR (NR concentration 90 nM, RXRa partner concentration 30 nM)"
  VALUE KIND: "PBM binding z-score"
  RESULT NUMBER: -0.468
- SEQUENCE CONTENT: "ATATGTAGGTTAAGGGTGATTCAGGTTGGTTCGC"
  ASSAYED SYSTEM: "PPARg:RXRa 90nM:30nM, anti-RXR (NR concentration 90 nM, RXRa partner concentration 30 nM)"
  VALUE KIND: "PBM binding z-score"
  RESULT NUMBER: 9.45
- SEQUENCE CONTENT: "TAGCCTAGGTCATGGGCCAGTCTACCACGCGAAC"
  ASSAYED SYSTEM: "PPARg:RXRa 90nM:30nM, anti-RXR (NR concentration 90 nM, RXRa partner concentration 30 nM)"
  VALUE KIND: "PBM binding z-score"
  RESULT NUMBER: 2.48
- SEQUENCE CONTENT: "ATCTCTAGGTAAGAGTCAGTTCAGTGAAGAACGC"
  ASSAYED SYSTEM: "PPARg:RXRa 90nM:30nM, anti-RXR (NR concentration 90 nM, RXRa partner concentration 30 nM)"
  VALUE KIND: "PBM binding z-score"
  RESULT NUMBER: 0.958
- SEQUENCE CONTENT: "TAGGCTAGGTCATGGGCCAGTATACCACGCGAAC"
  ASSAYED SYSTEM: "PPARg:RXRa 90nM:30nM, anti-RXR (NR concentration 90 nM, RXRa partner concentration 30 nM)"
  VALUE KIND: "PBM binding z-score"
  RESULT NUMBER: 3.18
- SEQUENCE CONTENT: "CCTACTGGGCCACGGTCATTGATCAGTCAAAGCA"
  ASSAYED SYSTEM: "PPARg:RXRa 90nM:30nM, anti-RXR (NR concentration 90 nM, RXRa partner concentration 30 nM)"
  VALUE KIND: "PBM binding z-score"
  RESULT NUMBER: 1.1

## Input What PBM binding z-score appears in the records for this sequence with PPARg:RXRa 90nM:30nM, anti-RXR (NR concentration 90 nM, RXRa partner concentration 30 nM)? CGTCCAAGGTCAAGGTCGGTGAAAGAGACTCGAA
## Output 4.39

## Input Hi! What's the reported PBM binding z-score for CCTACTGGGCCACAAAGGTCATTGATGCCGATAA on PPARg:RXRa 90nM:30nM, anti-RXR (NR concentration 90 nM, RXRa partner concentration 30 nM)?
## Output 5.54

## Input Give PPARg:RXRa 90nM:30nM, anti-RXR (NR concentration 90 nM, RXRa partner concentration 30 nM) PBM binding z-score for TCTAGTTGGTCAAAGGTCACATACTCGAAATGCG
## Output 11.1

## Input Please provide the recorded PBM binding z-score for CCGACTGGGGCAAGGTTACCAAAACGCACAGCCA , tested on PPARg:RXRa 90nM:30nM, anti-RXR (NR concentration 90 nM, RXRa partner concentration 30 nM).
## Output 2.6

## Input Query for PPARg:RXRa 90nM:30nM, anti-RXR (NR concentration 90 nM, RXRa partner concentration 30 nM): what PBM binding z-score does the record show for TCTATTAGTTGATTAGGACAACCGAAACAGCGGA ?
## Output 3.32

## Input Please provide the recorded PBM binding z-score for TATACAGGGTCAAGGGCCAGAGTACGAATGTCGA , tested on PPARg:RXRa 90nM:30nM, anti-RXR (NR concentration 90 nM, RXRa partner concentration 30 nM).
## Output 5.91

## Input Lab note: need PBM binding z-score for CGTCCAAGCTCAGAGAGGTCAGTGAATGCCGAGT on PPARg:RXRa 90nM:30nM, anti-RXR (NR concentration 90 nM, RXRa partner concentration 30 nM), anyone have it?
## Output -0.0568

## Input Report PBM binding z-score for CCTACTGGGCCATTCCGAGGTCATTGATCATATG tested on PPARg:RXRa 90nM:30nM, anti-RXR (NR concentration 90 nM, RXRa partner concentration 30 nM).
## Output 1.54

## Input Checklist item: PBM binding z-score tested on PPARg:RXRa 90nM:30nM, anti-RXR (NR concentration 90 nM, RXRa partner concentration 30 nM), entry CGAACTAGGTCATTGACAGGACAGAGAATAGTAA , value?
## Output 6.06

## Input What value of PBM binding z-score on PPARg:RXRa 90nM:30nM, anti-RXR (NR concentration 90 nM, RXRa partner concentration 30 nM) does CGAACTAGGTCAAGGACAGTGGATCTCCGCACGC have?
## Output 5.72

## Input What is its PBM binding z-score for PPARg:RXRa 90nM:30nM, anti-RXR (NR concentration 90 nM, RXRa partner concentration 30 nM)? Entry: AGAATGAGGTTATTAAGAACAGGGAATTGCGGTC
## Output 1.02

## Input Checklist item: PBM binding z-score tested on PPARg:RXRa 90nM:30nM, anti-RXR (NR concentration 90 nM, RXRa partner concentration 30 nM), entry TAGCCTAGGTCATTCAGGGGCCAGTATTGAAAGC , value?
## Output 1.32

## Input // fetch PPARg:RXRa 90nM:30nM, anti-RXR (NR concentration 90 nM, RXRa partner concentration 30 nM) PBM binding z-score for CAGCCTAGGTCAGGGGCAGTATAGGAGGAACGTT
## Output 0.954

## Input What is its PBM binding z-score for PPARg:RXRa 90nM:30nM, anti-RXR (NR concentration 90 nM, RXRa partner concentration 30 nM)? Entry: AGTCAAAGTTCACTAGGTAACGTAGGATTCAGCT
## Output 5.79

## Input Quick check: PBM binding z-score on PPARg:RXRa 90nM:30nM, anti-RXR (NR concentration 90 nM, RXRa partner concentration 30 nM), item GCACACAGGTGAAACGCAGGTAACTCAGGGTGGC ?
## Output -0.0562

## Input Enter reported PBM binding z-score observed with PPARg:RXRa 90nM:30nM, anti-RXR (NR concentration 90 nM, RXRa partner concentration 30 nM) for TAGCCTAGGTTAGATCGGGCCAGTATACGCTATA
## Output -0.187

Ref: the supplement of paper PMC6555819
